Entry source: PubChem BioAssay AID652087

- testSystem: Sphingosine 1-phosphate receptor 1 (Homo sapiens) (UniProt P21453)
- Sequence (P21453 whole entry, looked up): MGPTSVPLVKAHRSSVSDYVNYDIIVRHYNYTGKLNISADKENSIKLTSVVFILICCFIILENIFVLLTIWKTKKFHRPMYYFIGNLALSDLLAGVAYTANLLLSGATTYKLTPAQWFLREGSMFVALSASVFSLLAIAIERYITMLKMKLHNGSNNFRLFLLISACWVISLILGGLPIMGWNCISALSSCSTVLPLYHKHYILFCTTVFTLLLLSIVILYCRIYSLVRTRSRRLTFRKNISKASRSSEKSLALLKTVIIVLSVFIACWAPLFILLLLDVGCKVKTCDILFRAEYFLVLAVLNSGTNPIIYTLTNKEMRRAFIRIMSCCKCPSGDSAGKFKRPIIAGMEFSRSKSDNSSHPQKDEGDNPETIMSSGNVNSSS
- assayNotes: S1P1 receptor antagonists, human, confirmation, counter-screen for OPRK1 antagonist project, cell-based, fluorescence (AID 652087)
- testParameters: Tango EDG-1-bla U2OS, beta-lactamase FRET, S1P antagonism; at 9 µM; hits give high values
In this section, each of the molecules is paired with its reported inhibition.
Reply with just the number (in %).

{"smilesRepr": "NC(=NC(=O)c1cccc(C(F)(F)F)c1)c1ccc(C(F)(F)F)cn1", "unitAnnotation": "%", "testResult": 47.1}
{"smilesRepr": "C#Cc1cccc(NC(=O)c2sc3nc4c(c(-c5cccs5)c3c2N)CCCC4)c1", "unitAnnotation": "%", "testResult": 46.3}
{"smilesRepr": "CS(=O)(=O)/C(C#N)=C\\c1ccc(Cl)s1", "unitAnnotation": "%", "testResult": -11.8}
{"smilesRepr": "COc1ccc([N+](=O)[O-])c(S(=O)(=O)c2ccc(Cl)cc2)n1", "unitAnnotation": "%", "testResult": 12.7}
{"smilesRepr": "Nc1c(C(=O)c2ccccc2)sc2nsc(SCCN3CCCC3)c12", "unitAnnotation": "%", "testResult": 27.5}

// query Report inhibition for "O=C(NNC(=O)C(F)(F)F)c1ccc[nH]1" tested on Sphingosine 1-phosphate receptor 1 (Homo sapiens) (UniProt P21453).
// result -19.8

// query Missing value: inhibition, Sphingosine 1-phosphate receptor 1 (Homo sapiens) (UniProt P21453), entry "CCOC(=O)[C@@H](N)CCSC" . Fill in?
// result -3.49

----------
Known inhibition of a selection of compounds
- testSystem: Sphingosine 1-phosphate receptor 1 (Homo sapiens)
- assayNotes: S1P1 receptor antagonists, human, confirmation, counter-screen for OPRK1 antagonist project, cell-based, fluorescence (AID 652087)
- testParameters: Tango EDG-1-bla U2OS, beta-lactamase FRET, S1P antagonism; at 9 µM; hits give high values
Give the value in % but do not write % after it.

# annotated cases, reported inhibition shown
{"compound": "CC(CCC(C)OC(=O)c1ccccc1C(=O)O)OC(=O)c1ccccc1C(=O)O (stereo not given)", "unitAnnotation": "%", "inhibition": -6.9}
{"compound": "O=C(N/C(=C\\c1ccc(-c2ccc([N+](=O)[O-])cc2)o1)c1nc2ccccc2[nH]1)c1ccccc1", "unitAnnotation": "%", "inhibition": 73.1}
{"compound": "COC(=O)c1cc(-c2ccc(OC)cc2)c(-c2ccc(OC)cc2)s1", "unitAnnotation": "%", "inhibition": 9.19}

// query Bench note: what inhibition did "COc1ccc(OS(=O)(=O)c2sc(Br)cc2Br)cc1" show?
// result 11.6

// query What value of measured inhibition is listed for "N#Cc1cccnc1NNC(=O)COCC(=O)O" ?
// result 86.5

// query Which inhibition value belongs to "CCN(CC)c1ccc(/C=C/c2ccc([N+](=O)[O-])cc2C#N)cc1" ?
// result 55.7

// query Returns the measured inhibition for the input compound. Input: "O=[N+]([O-])c1ccc(-c2ccc(/C=N/NC(=S)Nc3cccc(F)c3)o2)cc1"
// result 67.9

// query # get_value(readout='inhibition', item= "CCOC(=O)C1CCN(Cc2cccc(NC(=O)c3cccs3)c2)CC1" )
// result 15.1

// query Looking for the measured inhibition of "COc1cccc(/C=C(\C#N)c2ccc([N+](=O)[O-])cc2)c1OC" , can you help?
// result 52.1

// query What does the data say about its inhibition? Entry: "O=[N+]([O-])c1c(Sc2ccc(Cl)cc2)ccc2nsnc12"
// result 76.9
